Origin of values: PubChem BioAssay

# assay-notes: human hepatoma cell viability loss – ATP luminescence, cytotoxicity control for P. falciparum antimalarial project, primary screen (AID 2303);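 note: 0% = DMSO wells and 100% = digitonin-killed cells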
# applied-conditions: HepG2 viability, 24-48 h, at 10 µM, active compounds read high
Recorded inhibition by entry
property-measured: inhibition (%)

• CCOC(=O)c1ccc(NC(=O)Nc2ccc(-c3ccc(-c4nc5ccc(C(F)(F)F)cc5[nH]4)cc3)cc2)cc1 = 20
• CCCCc1ccc(S(=O)(=O)Nc2ccc3c(c2)CCN(Cc2c[nH]c4cnccc24)CC3)cc1 = 41
• O=C(Nc1cc(F)c(F)c(-c2cccnc2)c1)N1CCc2cc(Cl)c(Cl)cc21 = 0
• CC[C@H](C)CNC(=O)c1cccc(-c2ccc(CN3CCC(N4CCCC4)CC3)cc2)n1 = 41
• CCN1CCC(N(Cc2ccc(-c3ccc(C(F)(F)F)cc3)cc2)C(=O)Cn2c(CCc3cccc(F)c3F)cc(=O)c3ccc(OCc4ccccc4)cc32)CC1 = 60
• Cc1[nH]nc2cc(Nc3nccc(Nc4ccc(Oc5ccccc5)cc4)n3)ccc12 = 8
• O=c1cc(NCCCNCc2cc3c(Cl)cc(Cl)cc3[nH]2)[nH]c2ccccc12 = -10
• O=C(Nc1cccc(OC2CCN(Cc3ccc(F)cc3)CC2)c1)c1ccc(C(F)(F)F)cc1 = 28
• CCOc1ccc(-c2nonc2NC(=O)CC(C)C)cc1OCC = -1
